B1: HDV Ribozyme (parent)
chain: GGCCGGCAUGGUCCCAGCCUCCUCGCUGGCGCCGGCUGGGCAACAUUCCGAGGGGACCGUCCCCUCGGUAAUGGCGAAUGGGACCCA

- Variants of: B1
- Experiment summary: self-cleavage, relative activity (ratio to wild type); higher = more cleavage; co-transcriptional
Threshold rule: self-cleavage greater than or equal to 0.6 is Satisfied; below that, Not satisfied.

Worked examples, 4 variants total:
Mutant id	Category
U27A C84U	Satisfied
G55A C84A	Satisfied
A43U G59A	Satisfied
A16C C19G	Not satisfied

Q: Is reported self-cleavage greater than or equal to 0.6 here: U23A G73C
Result: Not satisfied

Q: Is reported self-cleavage greater than or equal to 0.6 here: C21A G31U
Result: Not satisfied

Q: Is reported self-cleavage greater than or equal to 0.6 here: A8C G34U
Result: Not satisfied

Q: Is reported self-cleavage greater than or equal to 0.6 here: A8C C61U
Result: Satisfied

Q: Is reported self-cleavage greater than or equal to 0.6 here: C30A A70C
Result: Not satisfied
